These measurements were taken from the supplement of paper PMC13380429.

# Tested on: Caco-2
# protocol-text: cell viability relative to DMSO; higher = less toxic
# details: 72 h; 10000 nM
Please go through the items and note down their cell viability.
Give bare numbers, in %.

Recorded results for 5 compounds are shown here.
# compound, readout-name, unit-symbol, reported-measurement
measured = [
    ("CCOc1ccc2ccccc2c1C(=O)N[C@@H]1C(=O)N2[C@@H]1SC(C)(C)[C@@H]2C(=O)O", "cell viability", "%", 105),
    ("CC[C@H]1[C@@H](O)[C@@H]2[C@H](CC[C@]3(C)[C@@H]([C@H](C)CCC(=O)O)CC[C@@H]23)[C@@]2(C)CC[C@@H](O)C[C@@H]12", "cell viability", "%", 95.5),
    ("CN1CCN(CCCCN2C(=O)CN(/N=C/c3ccc(-c4ccc(Cl)cc4)o3)C2=O)CC1 [azimilide]", "cell viability", "%", 94.5),
    ("NC(N)=Nc1nc(CSCC/C(N)=N/S(N)(=O)=O)cs1", "cell viability", "%", 96.8),
    ("C=C1/C(=C\\C=C2/CCC[C@]3(C)[C@@H]([C@H](C)CCCC(C)(C)O)CC[C@@H]23)C[C@@H](O)C[C@@H]1O", "cell viability", "%", 92.5),
]

List reported cell viability for each of these compounds:
1. CCOc1ccc2nc(SCCN3CCOCC3)[nH]c2c1
2. CNC(=O)ON(C(C)=O)C(=O)NC [caracemide]
3. COc1cc(Nc2c(C#N)cnc3cc(OCCCN4CCN(C)CC4)c(OC)cc23)c(Cl)cc1Cl

## Result
1. 102
2. 99.7
3. 42.6

---

# System: U2OS
# protocol-text: cell viability relative to DMSO; higher = less toxic
# details: 72 h; 1000 nM
Please go through the items and note down their cell viability.
One number for each entry, in %.

Recorded results for 4 molecules are shown here.
# molecule, cell viability, %
rows = [
    ("C=C1CC[C@@H]2[C@](C)(CO)[C@H](O)CC[C@@]2(C)[C@@H]1C/C=C1/C(=O)OC[C@H]1O [andrographolide]", 96.2),
    ("O=C1N(c2ccccc2)c2ccccc2C1(Cc1ccncc1)Cc1ccncc1 [linopirdine]", 103),
    ("NC(=O)c1cccc(N)c1 [3-amino-benzamide]", 104),
    ("COc1ccc2cccc(CCNC(C)=O)c2c1 [agomelatine]", 98.8),
]

Alright, here's another molecule for you.
## Task Output cell viability of CCCCCCCCCCCC(=O)N(CCO)CCO [lauric-diethanolamide]
## Result 98.5

---

# Test system: Vero E6
# protocol-text: cell viability relative to DMSO; higher = less toxic
# details: 72 h; 10 nM
Please go through the items and note down their cell viability.
One number for each entry, in %.

Recorded results for 6 molecules are shown here.
# molecule, unit-symbol, cell viability
records = [
    ("CCC1(c2ccc(N)cc2)CCC(=O)NC1=O (stereo not drawn) [aminoglutethimide]", "%", 101),
    ("NC(N)=Nc1nc(CSCC/C(N)=N/S(N)(=O)=O)cs1", "%", 105),
    ("C[C@]12CC[C@@H]3c4ccc(OC(=O)N(CCCl)CCCl)cc4CC[C@H]3[C@@H]1CC[C@@H]2OP(=O)(O)O [estramustine-phosphate]", "%", 103),
    ("O=C(O)c1cc(C(=O)O)c(C(=O)N(Cc2cccc(Oc3ccccc3)c2)[C@H]2CCCc3ccccc32)cc1C(=O)O", "%", 102),
    ("COc1cc(Nc2c(C#N)cnc3cc(OCCCN4CCN(C)CC4)c(OC)cc23)c(Cl)cc1Cl", "%", 100),
    ("CCN(CC)CCOCCOC(=O)C(CC)(CC)c1ccccc1", "%", 95.9),
]

List reported cell viability for each of these molecules:
1. O=c1cc(N2CCOCC2)nc2c3ccccc3ccn12
2. Cc1ccc(-c2cc(C(F)(F)F)nn2-c2ccc(S(N)(=O)=O)cc2)cc1

## Result
[97.9, 85.4]
